Here, each record is paired with measured pest or weed control at 140 g/ha data.
# Test system: test plant species
# Method Summary: Post-emergent herbicidal activity test (greenhouse, foliar spray, visual growth reduction)
# Type: in vivo
# Stated Conditions: post-emergence, 336 h, CHEAL: lambsquarters (Chenopodium album), 140 g ai/ha, 14 days after application, read-out: Visual Growth Reduction (%) 14 Days After Application, CHEAL
Measurement Kind: pest or weed control at 140 g/ha

1) COC(=O)c1nc(-c2cc(C(F)(F)F)ccc2Cl)ccc1Cl : 0 to 29%
2) COC(=O)c1nc(-c2ccc(Cl)c(N(C)C)c2)ccc1Cl : 95 to 100%
3) COC(=O)c1nc(-c2ccc(C#N)c(Cl)c2)ccc1Cl : 45 to 59%
4) COCC(F)(F)c1ccc(-c2ccc(Cl)c(C(=O)O)n2)c(Cl)c1 : 0 to 29%
5) COC(=O)c1nc(-c2ccc(OC)cc2Cl)ccc1Cl : 0 to 29%
6) COC(=O)c1nc(-c2ccc(SC(F)(F)F)cc2)c(F)cc1Cl : 0 to 29%
7) O=C(O)c1nc(-c2cc3c(cc2Cl)OCO3)ccc1Cl : 75 to 84%
8) COC(=O)c1nc(-c2ncc(Cl)cc2Cl)ccc1Cl : 95 to 100%
9) COC(=O)c1nc(-c2ccc(C3CC3(F)F)cc2Cl)ccc1Cl (stereo not shown) : 85 to 94%
10) COC(=O)c1nc(-c2ccc(C(C)(F)F)cc2Cl)ccc1Cl : 95 to 100%

====

# Tested on: test plant species
# Method Summary: Post-emergent herbicidal activity test (greenhouse, foliar spray, visual growth reduction)
# Format: in vivo
# Stated Conditions: post-emergence, 336 h, yellow nutsedge (Cyperus esculentus), 14 Days After Application, 140 g ai/ha, read-out: Visual Growth Reduction (%) CYPES
Here, each record is paired with measured pest or weed control at 140 g/ha data.
Measurement Kind: pest or weed control at 140 g/ha

1) COC(=O)c1nc(-c2cc(Cl)c(C(F)(F)F)cc2C)c(F)cc1Cl : 0 to 29%
2) O=C(O)c1nc(-c2ccc(C(F)(F)F)c(Cl)c2)ccc1Cl : 0 to 29%
3) COC(=O)c1nc(-c2ccc(N)cc2F)c(F)cc1Cl : 0 to 29%
4) COC(=O)c1nc(-c2cc(Cl)c(C(F)(F)F)cc2C)ccc1Cl : 0 to 29%
5) CCC(F)c1c(Cl)ccc(-c2ccc(Cl)c(C(=O)OC)n2)c1F (centres unmarked) : 0 to 29%
6) COC(=O)c1nc(-c2ccc(C(F)(F)F)c(OC)c2)c(F)cc1Cl : 75 to 84%
7) CCCOC(=O)c1nc(-c2ccc(Cl)c(OC)c2F)ccc1Cl : 0 to 29%
8) COC(=O)c1nc(-c2c(Cl)cccc2OC)c(F)cc1Cl : 0 to 29%
9) COC(=O)c1nc(-c2ccc(F)cc2F)ccc1Cl : 0 to 29%
10) COC(=O)c1nc(-c2ccc3c(c2OC)OC(F)(F)O3)ccc1Cl : 0 to 29%
11) O=C(O)c1nc(-c2ccc(C(F)(F)F)c(C(F)F)c2F)c(F)cc1Cl : 0 to 29%
12) COC(=O)c1nc(-c2ccccc2)c(F)cc1Cl : 0 to 29%
13) COc1cc(C(F)(F)F)cc(Cl)c1-c1ccc(Cl)c(C(=O)O)n1 : 45 to 59%
14) COC(=O)c1nc(-c2ccc(C3(C#N)CC3)cc2Cl)c(Cl)cc1Cl : 0 to 29%
15) O=C(O)c1nc(-c2ccc(C(F)(F)F)c(F)c2)ccc1Cl : 60 to 74%
16) COC(=O)c1nc(-c2ccc(C(F)F)cc2)c(F)cc1Cl : 0 to 29%
17) COC(=O)c1nc(-c2ccc3c(c2)C(F)(F)OC(F)(F)O3)c(Cl)cc1Cl : 0 to 29%
